FYI, the data here is from patent US20240156935A1.

Target: T1, recombinant Q586B2 protein (Tb927.6.4140), produced in E. coli WK6
T1 chain: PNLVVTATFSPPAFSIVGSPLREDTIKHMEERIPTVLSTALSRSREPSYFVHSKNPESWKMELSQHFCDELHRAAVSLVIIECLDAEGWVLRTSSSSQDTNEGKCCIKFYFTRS
Assay: ELISA
Recorded Kd values for a group of binders are listed next.

Before answering, review these 3 worked examples.
binder	result
Nb36 (VHH) VHH: QVQLQESGGGLVQPGGSLRLSCAASGFAFSFYWMNWVRQAPGKGLEWVSAINSGGGSTYYADSVKGRFTISRDNAKNTLYLQMNSLKPEDTAVYYCAKGIVQRGEYYGMDYWGKGTQVTVSS	11.3 nM
Nb27 (VHH) VHH: QVQLQESGGGLVQPGGSLRLSCTTSRSILSIYAMGWYRQAPGKQRELVAVITSGGSTYYADSVKGRFTISRDNAKNTLYLQMNSLKPEDTALYYCARGGYGTSPQPSWGQGTQVTVSS	52 nM
Nb32 (VHH, Llama nanobody purified by IMAC and SEC; It was HA-tagged in flow cytometry; also called anti-Q586B2 Nb) VHH: QVQLQESGGGLVQPGGSLRLSCAASGFTFSAYAMSWVRQAPGKGLEWVSTIDSGGGSTYYADSVKGRFTISRDNAKKTLYLHMNSLKPEDTAVYYCAKRGYSDYARHVWGQGTQVTVSS	46.6 nM

Exercise: Any idea what its Kd is? The binder is Nb34 (VHH) VHH: QVQLQESGGGLVQPGGSLRLSCAASGFTFSNSPMNWVRQAPGKGLEWVSAINSGGGSTYYADSVKGRFTISRDNAKNTLYLQMNSLKPEDTAVYYCAKGGRTYYSGSYYSWGMDYWGKGTQVTVSS
Solution: 36.7 nM
